Values from patent US4965280A

Each entry below carries its reported pest or weed control at 100 ppm.
Tested on: Plasmorpara viticola
Test: Example I grape downy mildew
Format: in vivo
Conditions: read-out: disease control rating, Ex. I
recorded endpoint: pest or weed control at 100 ppm

[[record]]
compound = "C=C(c1ccc(Cl)cc1Cl)C(O)(Cn1cncn1)c1ccc(Cl)cc1 (stereo not drawn)"
measured_on = "Plasmorpara viticola"
recorded_endpoint = "pest or weed control at 100 ppm"
val = "100%"

[[record]]
compound = "C=C(c1ccc(Cl)cc1)C(O)(Cn1cncn1)c1ccc(F)cc1 (stereo not drawn)"
measured_on = "Plasmorpara viticola"
recorded_endpoint = "pest or weed control at 100 ppm"
val = "0%"

[[record]]
compound = "C=C(c1ccc(Cl)cc1Cl)C(O)(Cn1cncn1)c1ccc(Cl)cc1Cl (stereo not drawn)"
measured_on = "Plasmorpara viticola"
recorded_endpoint = "pest or weed control at 100 ppm"
val = "83%"

[[record]]
compound = "C=C(c1ccc(F)cc1)C(O)(Cn1ncnc1I)c1ccccc1F (stereo not drawn)"
measured_on = "Plasmorpara viticola"
recorded_endpoint = "pest or weed control at 100 ppm"
val = "44%"

[[record]]
compound = "C=C(c1cc(Cl)cc(Cl)c1)C(O)(Cn1cncn1)c1ccc(F)cc1F (stereo not drawn)"
measured_on = "Plasmorpara viticola"
recorded_endpoint = "pest or weed control at 100 ppm"
val = "65%"

[[record]]
compound = "C=C(c1ccc(F)cc1)C(O)(Cn1ncnc1S)c1ccccc1F (stereo not drawn)"
measured_on = "Plasmorpara viticola"
recorded_endpoint = "pest or weed control at 100 ppm"
val = "0%"

[[record]]
compound = "C=C(c1ccccc1)C(O)(Cn1cncn1)c1ccccc1 (stereo not drawn)"
measured_on = "Plasmorpara viticola"
recorded_endpoint = "pest or weed control at 100 ppm"
val = "0%"

[[record]]
compound = "C=C(c1ccc(F)cc1)C(O)(Cn1cncn1)C(C)C (stereo not drawn)"
measured_on = "Plasmorpara viticola"
recorded_endpoint = "pest or weed control at 100 ppm"
val = "10%"

[[record]]
compound = "C=C(c1ccc(Cl)cc1)C(O)(Cn1cncn1)c1ccccc1F (stereo not drawn)"
measured_on = "Plasmorpara viticola"
recorded_endpoint = "pest or weed control at 100 ppm"
val = "0%"


---

Listed here: items and their measured pest or weed control at 100 ppm.
System: Rhizoctonia solani
Assay: Example F rice sheath blight
Type: in vivo
Settings: Rhizoctonia solani, 144 h, 100 PPM; read-out: disease control rating, Ex. F
recorded endpoint: pest or weed control at 100 ppm (%)

[[record]]
compound = "C=C(c1ccc(F)cc1F)C(O)(Cn1cncn1)c1ccc(F)cc1 (centres unmarked) [Example 94]"
val = 36

[[record]]
compound = "C=C(c1ccc(Cl)cc1Cl)C(O)(Cn1cncn1)c1ccc(Cl)cc1 (centres unmarked) [Example 101]"
val = 80

[[record]]
compound = "C=C(CN(C)C)C(O)(Cn1cncn1)c1ccc(Cl)cc1Cl (centres unmarked) [Example 453]"
val = 0

[[record]]
compound = "C=C(c1ccccc1)C(O)(Cn1cncn1)c1ccccc1Cl (centres unmarked) [Example 596]"
val = 0

[[record]]
compound = "C=CCOC(Cn1cncn1)(C(=C)c1ccc(F)cc1)c1ccc(F)cc1 (centres unmarked) [Example 360]"
val = 49


---

Test system: Candida albicans ATCC 11651
Test: In vivo systemic Candida infection in mice, primary assay
Set-up: species or system Candida albicans; CF-1 female mice
Conditions: Candida albicans, ATCC11651, 336 h, 150 mg/kg per day, day 14; read-out: % Survival
Is responders at 150 mg/kg at least 80%? Then Criterion met. If not, Criterion not met.

[[record]]
compound = "C=C(c1ccc(F)cc1)C(O)(Cn1cncn1)C(C)C (stereo not drawn)"
measured_on = "Candida albicans ATCC 11651"
category_label = "Criterion not met"

[[record]]
compound = "OC(Cn1cncn1)(c1ccc(F)cc1)C1(c2ccccc2)CO1 (stereo not drawn)"
measured_on = "Candida albicans ATCC 11651"
category_label = "Criterion not met"

[[record]]
compound = "C=C(c1ccc(F)cc1)C(O)(Cn1cncn1)c1ccc(F)cc1F (stereo not drawn)"
measured_on = "Candida albicans ATCC 11651"
category_label = "Criterion not met"

[[record]]
compound = "C=C(c1ccc(F)cc1)C(O)(Cn1cncn1)c1ccc(-c2ccccc2)cc1 (stereo not drawn)"
measured_on = "Candida albicans ATCC 11651"
category_label = "Criterion not met"

[[record]]
compound = "C=C(c1ccc(Cl)cc1)C(O)(Cn1cncn1)c1ccccc1F (stereo not drawn)"
measured_on = "Candida albicans ATCC 11651"
category_label = "Criterion met"

[[record]]
compound = "C=C(c1ccc(Cl)cc1)C(O)(Cn1cncn1)c1ccc(Cl)c(Cl)c1 (stereo not drawn)"
measured_on = "Candida albicans ATCC 11651"
category_label = "Criterion not met"

[[record]]
compound = "C=C(c1ccccc1)C(O)(Cn1cncn1)c1ccc(F)cc1F (stereo not drawn)"
measured_on = "Candida albicans ATCC 11651"
category_label = "Criterion met"

